TARGET UNDER TEST: prostate specific membrane antigen (PSMA) (UniProt Q04609 1-750, limits assumed)
Sequence (Q04609 whole entry): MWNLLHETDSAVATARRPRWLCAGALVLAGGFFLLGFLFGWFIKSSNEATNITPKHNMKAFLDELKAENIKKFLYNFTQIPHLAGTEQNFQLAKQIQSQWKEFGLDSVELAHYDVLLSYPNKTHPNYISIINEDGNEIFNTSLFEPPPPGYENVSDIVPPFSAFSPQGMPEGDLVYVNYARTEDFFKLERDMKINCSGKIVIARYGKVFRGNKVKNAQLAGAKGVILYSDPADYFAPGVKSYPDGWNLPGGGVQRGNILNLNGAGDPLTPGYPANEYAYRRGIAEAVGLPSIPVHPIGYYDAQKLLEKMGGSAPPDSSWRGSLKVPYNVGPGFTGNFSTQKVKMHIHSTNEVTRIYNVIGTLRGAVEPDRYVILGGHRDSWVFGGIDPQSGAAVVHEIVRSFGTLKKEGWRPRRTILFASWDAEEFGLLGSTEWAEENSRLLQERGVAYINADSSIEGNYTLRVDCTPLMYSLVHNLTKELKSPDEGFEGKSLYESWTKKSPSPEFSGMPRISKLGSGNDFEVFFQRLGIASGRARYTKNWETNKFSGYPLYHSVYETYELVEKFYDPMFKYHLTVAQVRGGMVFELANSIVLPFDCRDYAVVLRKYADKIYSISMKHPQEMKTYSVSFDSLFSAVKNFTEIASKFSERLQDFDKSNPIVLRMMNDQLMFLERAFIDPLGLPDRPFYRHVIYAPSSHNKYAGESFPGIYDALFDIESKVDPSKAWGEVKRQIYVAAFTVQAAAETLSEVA
PROTOCOL DETAILS: cell-based or functional assay
Assign VCAP cells IC50 (nM), cytotoxicity (CellTiterGlo) to each entry below.
Field format: number, assumed nM, no unit text.

Please look up its VCAP cells IC50 (nM), cytotoxicity (CellTiterGlo): P233FR9_H10 vcMMAF conjugate (designed binder, vc-MMAF conjugated through a sortase tag (Gly3-vc-MMAF, sortase A)) LPAPKNLVVSRVTEDSARLSWTAPDAAFDSFAIGYWEWDDDGEAIVLTVPGSERSYDLTGLKPGTEYPVYIAGVKGGQWSFPLSAIFTT
25.9

Please look up its VCAP cells IC50 (nM), cytotoxicity (CellTiterGlo): P234CR9_H01 vcMMAF conjugate (designed binder, vc-MMAF conjugated through a sortase tag (Gly3-vc-MMAF, sortase A)) LPAPKNLVVSRVTEDSARLSWEWWVIPGDFDSFLIQYQESEKVGEAIVLTVPGSERSYDLTGLKPGTEYTVSIYGVVNSGQWNDTSNPLSAIFTT
401

Please look up its VCAP cells IC50 (nM), cytotoxicity (CellTiterGlo): P233FR9P1001-H3-1 vcMMAF conjugate (designed binder, vc-MMAF conjugated through a sortase tag (Gly3-vc-MMAF, sortase A)) LPAPKNLVVSRVTEDSARLSWTAPDAAFDSFPIGYWEWDDDGEAIVLTVPGSERSYDLTGLKPGTEYHVYIAGVKGGQWSFPLSAIFTT
15.2

Please look up its VCAP cells IC50 (nM), cytotoxicity (CellTiterGlo): P229CR5P819_H11 vcMMAF conjugate (designed binder, vc-MMAF conjugated through a sortase tag (Gly3-vc-MMAF, sortase A)) LPAPKNLVVSRVTEDSARLSWDIDEQRDWFDSFLIQYQESEKVGEAIVLTVPGSERSYDLTGLKPGTEYTVSIYGVYHVYRSSNPLSAIFTT
231
